All values here come from ChEMBL document CHEMBL1208666.

Each entry below lists one item and its recorded MIC value.
Test system: Aspergillus flavus
Test: Antifungal activity against Aspergillus flavus after 48 hrs by agar streak dilution method
Assay type: functional

{"columns": ["compound", "MIC / µg/mL"],
 "data": [
  ["O=C(NN1C(=O)C=CC1=O)c1ccc(-n2c(-c3ccccc3)nc3c(Br)cc(Br)cc3c2=O)cc1", 4.5],
  ["OC(Cn1cncn1)(Cn1cncn1)c1ccc(F)cc1F", 0.78],
  ["NNC(=O)c1ccc(-n2c(-c3ccccc3)nc3c(Br)cc(Br)cc3c2=O)cc1", 18.5],
  ["O=C(N/N=C/c1ccc2ccccc2c1)c1ccc(-n2c(-c3ccccc3)nc3c(Br)cc(Br)cc3c2=O)cc1", 0.39],
  ["Cc1nnc(-c2ccc(-n3c(-c4ccccc4)nc4c(Br)cc(Br)cc4c3=O)cc2)o1", 9.5],
  ["Cc1ccc(C2SCC(=O)N2NC(=O)c2ccc(-n3c(-c4ccccc4)nc4c(Br)cc(Br)cc4c3=O)cc2)cc1 (stereo not given)", 12.5],
  ["O=C(NN1C(=O)CCC1=O)c1ccc(-n2c(-c3ccccc3)nc3c(Br)cc(Br)cc3c2=O)cc1", 3.5],
  ["O=C(N/N=C/c1ccccc1)c1ccc(-n2c(-c3ccccc3)nc3c(Br)cc(Br)cc3c2=O)cc1", 25],
  ["CCOC(=O)c1ccc(-n2c(-c3ccccc3)nc3c(Br)cc(Br)cc3c2=O)cc1", 25],
  ["Cc1ccc(/C=N/NC(=O)c2ccc(-n3c(-c4ccccc4)nc4c(Br)cc(Br)cc4c3=O)cc2)cc1", 20],
  ["COc1ccc(C2SCC(=O)N2NC(=O)c2ccc(-n3c(-c4ccccc4)nc4c(Br)cc(Br)cc4c3=O)cc2)cc1 (stereo not given)", 1.56],
  ["CC(=O)NNC(=O)c1ccc(-n2c(-c3ccccc3)nc3c(Br)cc(Br)cc3c2=O)cc1", 1.2],
  ["O=C(N/N=C/c1ccc(Cl)cc1)c1ccc(-n2c(-c3ccccc3)nc3c(Br)cc(Br)cc3c2=O)cc1", 12.5],
  ["O=C(N/N=C/c1ccccc1O)c1ccc(-n2c(-c3ccccc3)nc3c(Br)cc(Br)cc3c2=O)cc1", 10.5],
  ["O=C1CC(=O)N(C(=O)c2ccc(-n3c(-c4ccccc4)nc4c(Br)cc(Br)cc4c3=O)cc2)N1", 1.9]
]}

* * *

Tested on: Aspergillus flavus
Experiment: Antifungal activity against Aspergillus flavus after 48 hrs by agar streak dilution method
Type: functional

{"columns": ["chemical-structure", "measurement-target", "MIC"],
 "data": [
  ["O=C(NN1C(=O)c2ccccc2C1=O)c1ccc(-n2c(-c3ccccc3)nc3c(Br)cc(Br)cc3c2=O)cc1", "Aspergillus flavus", "0.39 µg/mL"],
  ["CC1=NN(C(=O)c2ccc(-n3c(-c4ccccc4)nc4c(Br)cc(Br)cc4c3=O)cc2)C(=O)C1", "Aspergillus flavus", "2.5 µg/mL"],
  ["COc1ccc(/C=N/NC(=O)c2ccc(-n3c(-c4ccccc4)nc4c(Br)cc(Br)cc4c3=O)cc2)cc1", "Aspergillus flavus", "25 µg/mL"],
  ["O=C(N/N=C/c1ccc(Cl)c(Cl)c1)c1ccc(-n2c(-c3ccccc3)nc3c(Br)cc(Br)cc3c2=O)cc1", "Aspergillus flavus", "19 µg/mL"]
]}

* * *

Test system: Bacillus cereus
Assay: Antibacterial activity against Bacillus cereus at 100 ug/ml after 24 hrs by paper disc diffusion technique
Format: functional
Settings: read-out: IZ
Each entry below lists one item and its recorded zone of inhibition at 100 µg/mL value.
measurement-label: zone of inhibition at 100 µg/mL (mm)

{"columns": ["compound", "measurement-label", "reported-result"],
 "data": [
  ["O=C(NN1C(=O)C=CC1=O)c1ccc(-n2c(-c3ccccc3)nc3c(Br)cc(Br)cc3c2=O)cc1", "zone of inhibition at 100 µg/mL", 9],
  ["Cc1nnc(-c2ccc(-n3c(-c4ccccc4)nc4c(Br)cc(Br)cc4c3=O)cc2)o1", "zone of inhibition at 100 µg/mL", 17],
  ["COc1ccc(C2SCC(=O)N2NC(=O)c2ccc(-n3c(-c4ccccc4)nc4c(Br)cc(Br)cc4c3=O)cc2)cc1 (centres undefined)", "zone of inhibition at 100 µg/mL", 18],
  ["O=C(N/N=C/c1ccccc1O)c1ccc(-n2c(-c3ccccc3)nc3c(Br)cc(Br)cc3c2=O)cc1", "zone of inhibition at 100 µg/mL", 13]
]}

* * *

Each entry below lists one item and its recorded MIC value.
System: Bacillus cereus
Assay: Antibacterial activity against Bacillus cereus after 24 hrs by agar streak dilution method
Assay type: functional
measurement-label: MIC

{"columns": ["compound", "reported-result"],
 "data": [
  ["O=C(N/N=C/c1ccc(Cl)cc1)c1ccc(-n2c(-c3ccccc3)nc3c(Br)cc(Br)cc3c2=O)cc1", "5.5 µg/mL"],
  ["O=C(N/N=C/c1ccc2ccccc2c1)c1ccc(-n2c(-c3ccccc3)nc3c(Br)cc(Br)cc3c2=O)cc1", "50 µg/mL"],
  ["Cc1ccc(C2SCC(=O)N2NC(=O)c2ccc(-n3c(-c4ccccc4)nc4c(Br)cc(Br)cc4c3=O)cc2)cc1 (stereo not drawn)", "50 µg/mL"],
  ["O=C(O)c1cn(C2CC2)c2cc(N3CCNCC3)c(F)cc2c1=O", "0.39 µg/mL"],
  ["O=C1CC(=O)N(C(=O)c2ccc(-n3c(-c4ccccc4)nc4c(Br)cc(Br)cc4c3=O)cc2)N1", "> 50 µg/mL"],
  ["CCOC(=O)c1ccc(-n2c(-c3ccccc3)nc3c(Br)cc(Br)cc3c2=O)cc1", "50 µg/mL"],
  ["CC1=NN(C(=O)c2ccc(-n3c(-c4ccccc4)nc4c(Br)cc(Br)cc4c3=O)cc2)C(=O)C1", "> 50 µg/mL"],
  ["O=C(NN1C(=O)CSC1c1ccccc1O)c1ccc(-n2c(-c3ccccc3)nc3c(Br)cc(Br)cc3c2=O)cc1 (stereo not drawn)", "> 50 µg/mL"]
]}

* * *

System: Bacillus cereus
Test: Antibacterial activity against Bacillus cereus at 100 ug/ml after 24 hrs by paper disc diffusion technique
Format: functional
Conditions: read-out: IZ
Respond with yes (1) for zone of inhibition at 100 µg/mL values of 10 mm and above, no (0) for values below.

{"columns": ["chemical-structure", "assigned-label"],
 "data": [
  ["O=C(N/N=C/c1ccc(Cl)c(Cl)c1)c1ccc(-n2c(-c3ccccc3)nc3c(Br)cc(Br)cc3c2=O)cc1", "yes (1)"],
  ["O=C(N/N=C/c1ccc2ccccc2c1)c1ccc(-n2c(-c3ccccc3)nc3c(Br)cc(Br)cc3c2=O)cc1", "yes (1)"],
  ["O=C(N/N=C/c1ccc(Cl)cc1)c1ccc(-n2c(-c3ccccc3)nc3c(Br)cc(Br)cc3c2=O)cc1", "yes (1)"],
  ["O=C(NN1C(=O)CCC1=O)c1ccc(-n2c(-c3ccccc3)nc3c(Br)cc(Br)cc3c2=O)cc1", "no (0)"],
  ["O=C(NN1C(=O)c2ccccc2C1=O)c1ccc(-n2c(-c3ccccc3)nc3c(Br)cc(Br)cc3c2=O)cc1", "yes (1)"],
  ["Cc1cc(C)n(C(=O)c2ccc(-n3c(-c4ccccc4)nc4c(Br)cc(Br)cc4c3=O)cc2)n1", "yes (1)"],
  ["O=C(N/N=C/c1ccccc1)c1ccc(-n2c(-c3ccccc3)nc3c(Br)cc(Br)cc3c2=O)cc1", "yes (1)"],
  ["CCOC(=O)c1ccc(-n2c(-c3ccccc3)nc3c(Br)cc(Br)cc3c2=O)cc1", "no (0)"]
]}

* * *

Tested on: Bacillus cereus
Test: Antibacterial activity against Bacillus cereus after 24 hrs by agar streak dilution method
Assay type: functional
Assign a class from recorded MIC; defined classes: low bin (below 20 µg/mL), mid bin (20 µg/mL to below 40 µg/mL), high bin (40 µg/mL or more)

{"columns": ["molecule", "assigned-label"],
 "data": [
  ["Cc1ccc(/C=N/NC(=O)c2ccc(-n3c(-c4ccccc4)nc4c(Br)cc(Br)cc4c3=O)cc2)cc1", "mid bin"],
  ["COc1ccc(/C=N/NC(=O)c2ccc(-n3c(-c4ccccc4)nc4c(Br)cc(Br)cc4c3=O)cc2)cc1", "mid bin"],
  ["NNC(=O)c1ccc(-n2c(-c3ccccc3)nc3c(Br)cc(Br)cc3c2=O)cc1", "mid bin"],
  ["O=C(NN1C(=O)C=CC1=O)c1ccc(-n2c(-c3ccccc3)nc3c(Br)cc(Br)cc3c2=O)cc1", "high bin"],
  ["Cc1cc(C)n(C(=O)c2ccc(-n3c(-c4ccccc4)nc4c(Br)cc(Br)cc4c3=O)cc2)n1", "mid bin"],
  ["O=C(N/N=C/c1ccccc1O)c1ccc(-n2c(-c3ccccc3)nc3c(Br)cc(Br)cc3c2=O)cc1", "mid bin"],
  ["O=C(NN1C(=O)CSC1c1ccccc1)c1ccc(-n2c(-c3ccccc3)nc3c(Br)cc(Br)cc3c2=O)cc1 (stereo not given)", "high bin"],
  ["O=C(N/N=C/c1ccc(Cl)c(Cl)c1)c1ccc(-n2c(-c3ccccc3)nc3c(Br)cc(Br)cc3c2=O)cc1", "low bin"],
  ["O=C(NN1C(=O)c2ccccc2C1=O)c1ccc(-n2c(-c3ccccc3)nc3c(Br)cc(Br)cc3c2=O)cc1", "low bin"],
  ["COc1ccc(C2SCC(=O)N2NC(=O)c2ccc(-n3c(-c4ccccc4)nc4c(Br)cc(Br)cc4c3=O)cc2)cc1 (stereo not given)", "low bin"],
  ["CC(=O)NNC(=O)c1ccc(-n2c(-c3ccccc3)nc3c(Br)cc(Br)cc3c2=O)cc1", "high bin"],
  ["O=C(NN1C(=O)CCC1=O)c1ccc(-n2c(-c3ccccc3)nc3c(Br)cc(Br)cc3c2=O)cc1", "high bin"],
  ["O=C(N/N=C/c1ccco1)c1ccc(-n2c(-c3ccccc3)nc3c(Br)cc(Br)cc3c2=O)cc1", "high bin"],
  ["O=C(N/N=C/c1ccccc1)c1ccc(-n2c(-c3ccccc3)nc3c(Br)cc(Br)cc3c2=O)cc1", "mid bin"],
  ["Cc1nnc(-c2ccc(-n3c(-c4ccccc4)nc4c(Br)cc(Br)cc4c3=O)cc2)o1", "low bin"]
]}
